# Tested on: MDA-MB-468 breast
# experiment_description: NCI-60 one-dose screen, 48 h
# condition_notes: 10 µM unless noted
The panel holds about 83,000 compounds, 20% with a hit somewhere; the sample as a whole holds those more often. Calls of active or inactive are those of the source. The calls were made as follows: active = growth percent below 10; inactive = the rest.
Respond using exactly one of the listed classes: active, inactive

Task item: Which result was noted for this compound in the test: "COc1ccc(F)c(F)c1C(=O)c1cnc(NC2CCN(S(C)(=O)=O)CC2)nc1N"
Reply: active

Task item: Hey, what did the test say about "C#C[C@]1(O)CC[C@H]2[C@@H]3CC=C4c5sc(NCc6ccccc6)nc5CC[C@]4(C)[C@H]3CC[C@@]21C" ?
Reply: inactive

Task item: Please indicate how the test categorized "Cc1nnc(/N=C2\NC(=O)/C(=C/c3ccsc3)S2)s1" .
Reply: inactive

Task item: Short answer needed: outcome of this test for "CCc1nn2c(-c3ccccc3)c(-c3cc(OC)c(OC)c(OC)c3)nc2s1" ?
Reply: inactive

Task item: Given "Cc1cnc(C(=O)Nc2nc3ccc(S(=O)(=O)Nc4ccc(C5(C(F)(F)F)CC5)cc4)cc3[nH]2)cn1" , state the outcome it received in this test.
Reply: active

Task item: Field: outcome | Entry: "Cc1nc(NC(=S)Nc2ccc(F)cc2)sc1C(=O)NNC(=S)Nc1ccc(F)cc1"
Reply: inactive

Task item: Each compound tested received a call. Report the one for "CCCCCCNC(=O)Oc1ccc(/C(=C(/CC)Cc2ccccc2)c2ccc(OCCCN(C)C)cc2)cc1" .
Reply: inactive

Task item: Status in this test for "Cc1cccc(-c2nc(N(C)c3ccc4ncsc4c3)c3ccccc3n2)n1" ?
Reply: inactive

Task item: Short answer needed: outcome of this test for "CN1CCN(c2ccc(Nc3nc(NCCCNS(=O)(=O)c4ccccc4)c4sccc4n3)cc2)CC1" ?
Reply: inactive

Task item: Record lookup: outcome of this test for "Cc1sc2ncn(CC(=O)Nc3ccc(S(N)(=O)=O)cc3)c(=O)c2c1C" ?
Reply: inactive

Task item: Which outcome did this test record for the compound "Cc1nc2sc(C(=O)Nc3ccccc3)c(N)c2cc1C(=O)c1ccc(C(F)(F)F)cc1" ?
Reply: inactive

Task item: Record request — test call for "O=C1CN(Cc2ccc(C(=O)NO)cc2)C(=O)[C@@H](Cc2ccccc2)N1"
Reply: inactive

Task item: Lab log entry: CC1C(/C=N/Nc2ccccc2)C(C#N)(C#N)C1(C#N)C#N (centres undefined) — outcome as called in the assay?
Reply: inactive

Task item: For "O=C(Nc1ccc(F)cc1)Nc1ccc(CCO)cc1" , what call appears in the results of this test?
Reply: inactive

Task item: What was the test verdict on "CCN1CCN(c2nc(C)cc(N(CCNc3ccnc4cc(Cl)ccc34)Cc3ccc4c(c3)OCO4)n2)CC1" ?
Reply: active

Task item: So what was the verdict on "C=C(C)[C@@H]1CC[C@]2(COCCCNCCC#N)CC[C@]3(C)[C@H](CC[C@@H]4[C@@]5(C)CC[C@H](OCCCNCCC#N)C(C)(C)[C@@H]5CC[C@]43C)[C@@H]12" in this test?
Reply: active

Task item: How did this test come out for "CC(C)(C)n1cc(-c2ccnc(NCCCNS(=O)(=O)c3ccccc3)c2)c(-c2cccc(O)c2)n1" ?
Reply: active

Task item: What did this assay record as the result for "COc1ccccc1C(=O)NC(=S)Nc1ccc(-c2nc3ccccc3[nH]2)cc1" ?
Reply: inactive

Task item: Recorded test outcome, item "COc1ccccc1NS(=O)(=O)c1cccc(C(=O)Nc2ccc(Br)cc2)c1"
Reply: active

Every entry's value here was drawn from PubChem BioAssay (NCI).
